Listed here: items and their measured pKd.
- EXPERIMENTAL TARGET: T1, hu-CD74 antigen (R&D SYSTEMS catalog #3590-CD-050) (human, UniProt P04233-2 73-232, limits assumed)
- T1 construct: Bought antigen; also called rhCD74; human CD74
- T1 sequence (looked up): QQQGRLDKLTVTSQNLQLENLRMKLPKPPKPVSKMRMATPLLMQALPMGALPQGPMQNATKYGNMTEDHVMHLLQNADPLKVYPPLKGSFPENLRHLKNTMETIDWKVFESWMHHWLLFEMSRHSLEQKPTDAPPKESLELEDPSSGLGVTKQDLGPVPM
- ASSAY COMMENT: SPR (Biacore T200), captured on anti-human Fc, rhCD74 analyte
- Description: Kinetic binding experiments were performed at 25° C. using 1×HBS-EP+buffer. Kinetic data was collected by injecting test and control antibodies at concentrations of 10, 5 and 2.5 μg/mL for 12 s at a flow rate of 10 μl/min on flow cells 2, 3 and 4 respectively, followed by a buffer wash for 30 s at the same flow rate. […]
Note on pKd: it is the negative log10 of concentration, concentration in mol/L.

1251-F06 heavy chain paired with VL SEQ ID NO: 272 (antibody, V domains shown) VH: QVQLVESGGGVVQPGRSLRLSCAASGFTFSSFGMHWVRQAPDKGLEWVAVIWYDGSNEYYADSVKGRFTISRDNSKNTLYLQMNSLRAEDTAVYYCARGGSLVTRGVYGLDVWGQGTTVTVSS VL: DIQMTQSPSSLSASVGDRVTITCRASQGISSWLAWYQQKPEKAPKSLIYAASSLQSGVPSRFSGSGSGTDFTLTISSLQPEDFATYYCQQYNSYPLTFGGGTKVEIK
9.44

Q. What value of pKd has been reported for the following binder? 1275-D01 light chain paired with HC 1251-A06 (SEQ ID NO: 310) (antibody, human IgG1, V domains shown) VH: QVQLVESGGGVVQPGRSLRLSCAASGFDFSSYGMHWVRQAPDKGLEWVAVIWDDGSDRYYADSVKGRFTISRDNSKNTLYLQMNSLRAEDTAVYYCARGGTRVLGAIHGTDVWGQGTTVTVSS VL: DIQMTQSPSSLSASVGDRVTITCRASQGIGRWLAWYQQKPEKAPKSLIYGRSSLQSGVPSRFSGSGSGTDFTLTISSLQPEDFATYYCQQYNIYPLTFGGGTKVEIK
A. 9.14

Q. Can you handle 1251-G02 heavy chain paired with VL SEQ ID NO: 272 (antibody, V domains shown) VH: QVQLVESGGGVVQPGRSLRLSCAASGFTFSSYGMHWVRQAPDKGLEWVAVIWHDGSKDYYADSVKGRFTISRDNSKNTLYLQMNSLRAEDTAVYYCARGGQLDHGAIYGLDVWGQGTTVTVSS VL: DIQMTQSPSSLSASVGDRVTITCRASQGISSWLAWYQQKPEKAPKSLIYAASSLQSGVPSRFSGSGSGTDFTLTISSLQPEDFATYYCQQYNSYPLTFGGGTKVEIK next?
A. 9.19
